The reported measurements were obtained from ChEMBL document CHEMBL1201862.

Listed next: entries and their corresponding GI50.
- Tested on: TK-10
- experimental-protocol: NCI tumour cell line growth inhibition, 48 h
Activity calls are given as the source filed them. Rule as the data show it: active = GI50 up to about 1.1 µM and inactive = higher.

compound	GI50
Sc1nnc(CCCCCCCCc2nnc(S)o2)o1	> 100 µM (inactive)
Nc1ccccc1C(=O)CCc1c[nH]c2ccccc12	> 100 µM (inactive)

Q. I am curious: what GI50 value has been reported for N=C(N)N/N=C(/CC1OC(=O)c2ccccc21)c1ccc2ccccc2c1 (stereo unspecified) ?
A. 18.1 µM (inactive)

Q. GI50 lookup needed for Cc1ccc2c(c1)C=CC(C#N)N2C(=O)Oc1ccccc1 (stereo unspecified) , thanks.
A. 31 µM (inactive)

Q. Need GI50, item N#C/C(=C\Nc1ccccn1)C(=O)C1CC1
A. > 100 µM (inactive)

Q. For COc1cc(NS(=O)(=O)c2ccc(C)cc2)c2nccnc2c1 , what is its reported GI50?
A. 47 µM (inactive)

Q. Please look up its GI50: O=C(CSc1nc(=O)c(-c2ccccc2NC(=O)C(F)(F)F)n[nH]1)NC(=O)Nc1ccccc1
A. 45.9 µM (inactive)

Q. Item under review: CCOP(=O)(O)C1C(CO)OC(n2ccc(=O)[nH]c2=O)C1O (stereo unspecified) . Reported GI50?
A. > 100 µM (inactive)

Q. I have this compound here, O=[N+]([O-])C(/C=C(\Cl)n1nnc2ccccc21)=C(/Cl)n1nnc2ccccc21 , and I need its recorded GI50.
A. > 100 µM (inactive)

Q. Item O=c1oc2ccccc2cc1-c1cc2ccccn2c1 has what recorded GI50?
A. > 100 µM (inactive)

Q. Please report the recorded GI50 for COc1ccc(NC(C)=O)c(C(O)CCNC(C)=O)c1 (stereo unspecified) .
A. > 100 µM (inactive)

* * *

- Test system: OVCAR-8
- experimental-protocol: NCI tumour cell line growth inhibition, 48 h
Activity calls are given as the source filed them. No stated cut-off is given here; in the data, active = GI50 up to about 1.1 µM and inactive = higher.
endpoint: GI50

Worked cases, answers included:
molecule	endpoint	endpoint-result
COc1cc(-c2cc(=O)c3c(O)c(OC)c(OC)c(OC)c3o2)ccc1O	GI50	16.3 µM (inactive)
COc1ccc(C2c3cc4c(cc3OC(O)(CO)C2C(=O)O)OCO4)cc1.COc1ccc(C2c3cc4c(cc3OC3(O)COC(=O)C23)OCO4)cc1 (centres undefined)	GI50	20.5 µM (inactive)
Nc1n[n+]([O-])c2ccccc2[n+]1[O-]	GI50	> 100 µM (inactive)
COC(=O)c1c(O)ccc2c1c1cc3ccccc3cc1n2Cc1cc(OC)cc(OC)c1	GI50	6.38 µM (inactive)
COc1ccccc1C1c2cc3c(cc2OC(N2CCOCC2)C1C)OCO3 (centres undefined)	GI50	28.3 µM (inactive)

Q. Entry N#Cc1c(-c2ccco2)cc(-c2ccccc2)nc1O : reported GI50 = ?
A. > 100 µM (inactive)

* * *

- Tested on: DLD-1
- experimental-protocol: NCI tumour cell line growth inhibition, 48 h
Calls of active or inactive are those of the source. No stated cut-off is given here; in the data, active = GI50 up to about 1.1 µM and inactive = higher.
endpoint: GI50

molecule	target-of-assay	endpoint-result
CCOC(=O)C1=C(C)NC(=O)NC1c1ccc(OC)cc1OC (stereo not given)	DLD-1	> 100 µM (inactive)
CC(=O)NC(CCCCN(Cc1ccccc1)C(=O)N(C)N=O)C(=O)NCc1ccccc1 (stereo not given)	DLD-1	> 100 µM (inactive)
O=S(=O)(O)c1cc(/N=[N+](\[O-])c2ccc(/N=N/c3ccccc3)cc2S(=O)(=O)O)ccc1/C=C/c1ccc(/N=[N+](\[O-])c2ccc(/N=N/c3ccccc3)cc2S(=O)(=O)O)cc1S(=O)(=O)O	DLD-1	> 100 µM (inactive)
c1ccc2c(c1)CCc1c(-c3n[nH]c4c3CCc3ccccc3-4)n[nH]c1-2	DLD-1	> 100 µM (inactive)
Cc1ccc(S(=O)(=O)N/N=C(\c2nc3ccc(Cl)cc3nc2O)C(O)c2cccc([N+](=O)[O-])c2)cc1 (stereo not given)	DLD-1	> 100 µM (inactive)

Q. What value of measured GI50 is listed for N=C(N)N/N=C/c1c[nH]c2ccccc12 ?
A. > 100 µM (inactive)

Q. What does the data say about its GI50? Entry: COc1cc(Cn2c(=S)ss/c2=N\C(=S)N(C)C)cc(OC)c1OC
A. 6.31 µM (inactive)
